target_or_test_system: T1, human TSLP recombinant protein (human, UniProt Q969D9 29-159, biotinylated in the blocking and cell-binding assays (sites not given))
T1 construct: also called biotinylated human TSLP protein
test_details: ELISA on coated human TSLP;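 further: binding detected by TMB colour development for 10 min at 37 °C, then absorbance measured at 450 nm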
readout_kind: pEC50
pEC50 here: minus log base 10 of the concentration, concentration in moles per litre.

Can you share its pEC50? I mean this binder: Ab13 (antibody, V domains shown, Humanized; also called h39G5VHv13/h39G5VKv1) VH: EVQLVQSGAEVKKPGESLKISCKASGYTFTDYWMHWVRQMPGKGLEWMGIIDPSDSDTSLNQSFQGHVTISADKSISTAYLQWSSLKASDTAMYYCARSLDGYYDYWGQGTLVTVSS VL: DIQMTQSPSSLSASVGDRVTITCRASENIYSYLAWYQQKPGKAPKLLIYNARTLPEGVPSRFSGSGSGTDFTLTISSLQPEDFATYYCQHHYTTPWTFGQGTKVEIK
9.18

Entry Ab18 (antibody, V domains shown, Humanized; also called h71G4VHv3/h39G5VKv1) VH: QVQLVQSGAEVKKPGSSVKVSCKASGYTFTDYWMHWVRQAPGQGLEWMGTIDNSDSDTTYNQKFQGRVTMTRDTSTSTVYMELSSLRSEDTAVYYCARSVDGYLDYWGQGTLVTVSS VL: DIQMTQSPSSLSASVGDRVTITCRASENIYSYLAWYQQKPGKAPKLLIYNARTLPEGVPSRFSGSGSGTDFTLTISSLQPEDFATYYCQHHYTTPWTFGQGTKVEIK please
8.67

Entry Ab17 (antibody, V domains shown, Humanized; also called h71G4VHv2/h39G5VKv1) VH: QVQLVQSGAEVKKPGSSVKVSCKASGYTFTDYWMHWVRQAPGQGLEWMGTIDNSDSDTTYNQKFQGRVTLTVDTSTSTAYMELSSLRSEDTAVYYCARSVDGYLDYWGQGTLVTVSS VL: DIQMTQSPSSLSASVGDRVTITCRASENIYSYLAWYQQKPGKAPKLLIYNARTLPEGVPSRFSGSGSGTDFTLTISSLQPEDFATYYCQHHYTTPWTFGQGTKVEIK please
8.70

Where do the numbers come from? From patent US20230029835A1.
